Hello, the source for this data is paper PMC6214108, in case you need it.

Kindly supply the reported Percentage of Cell Cycles (%) S values for the records listed here.
system: A549 cells; assay: Cell cycle assay, PI single staining, flow cytometry; type: cell-based; settings: A549, 4 μM, 48 h
Numbers only, in %.

# compound_smiles, unit_label, value_reported
data = [
    ("COC(=O)c1cc2c3ccccc3n(Cc3ccccc3C)c2cn1", "%", 9.98),
    ("O=C(OCCCCCOC(=O)c1cc2c3ccccc3n(Cc3ccccc3F)c2cn1)c1cc2c3ccccc3n(Cc3ccccc3F)c2cn1", "%", 12.60),
    ("COC(=O)c1cc2c3ccccc3n(Cc3ccccc3F)c2cn1", "%", 17.33),
]

--- query ---
Identify measured Percentage of Cell Cycles (%) S associated with Cc1ccccc1Cn1c2ccccc2c2cc(C(=O)OCCCCCOC(=O)c3cc4c5ccccc5n(Cc5ccccc5C)c4cn3)ncc21
12.41

---

Kindly supply the reported Percentage of Cell Apoptosis (%) Late Apoptosis and Necrosis values for the records listed here.
test system: A549 cells; assay: Cell apoptosis assay, Annexin V-FITC/PI dual staining, flow cytometry; assay type: cell-based; details: A549, 4 μM, 48 h
Give the number first and the unit second.

Reference set, count: 3
# compound_smiles, measured_on, value_reported
measured = [
    ("O=C(OCCCCCOC(=O)c1cc2c3ccccc3n(Cc3ccccc3F)c2cn1)c1cc2c3ccccc3n(Cc3ccccc3F)c2cn1", "A549 cells", "60.93%"),
    ("COC(=O)c1cc2c3ccccc3n(Cc3ccccc3F)c2cn1", "A549 cells", "45.26%"),
    ("COC(=O)c1cc2c3ccccc3n(Cc3ccccc3C)c2cn1", "A549 cells", "36.06%"),
]

Answer briefly: Percentage of Cell Apoptosis (%) Late Apoptosis and Necrosis recorded on A549 cells for Cc1ccccc1Cn1c2ccccc2c2cc(C(=O)OCCCCCOC(=O)c3cc4c5ccccc5n(Cc5ccccc5C)c4cn3)ncc21
42.41%

---

System: A549 cells
Assay: Cell cycle assay, PI single staining, flow cytometry
Format: cell-based
Conditions: A549, 8 μM, 48 h
Experimental: The cell cycle was determined by PI single staining. […] The samples were analyzed using flow cytometry (BD FACSCalibur, San Jose, CA, USA). Figure 2 The cell cycle was detected by flow cytometry using PI single staining. […] The proportions of cells containing different DNA content were analyzed by FCS Express 5.0 (De Novo Software, Thornhill, Canada).
property_name: Percentage of Cell Cycles (%) S
Give the number first and the unit second.

Reference set, count: 3
# compound_smiles, value_reported
measured = [
    ("COC(=O)c1cc2c3ccccc3n(Cc3ccccc3C)c2cn1", "45.81%"),
    ("O=C(OCCCCCOC(=O)c1cc2c3ccccc3n(Cc3ccccc3F)c2cn1)c1cc2c3ccccc3n(Cc3ccccc3F)c2cn1", "0.08%"),
    ("COC(=O)c1cc2c3ccccc3n(Cc3ccccc3F)c2cn1", "11.69%"),
]

--- query ---
Identify measured Percentage of Cell Cycles (%) S associated with Cc1ccccc1Cn1c2ccccc2c2cc(C(=O)OCCCCCOC(=O)c3cc4c5ccccc5n(Cc5ccccc5C)c4cn3)ncc21
53.30%

---

tested on: A549 cells; assay: Cell cycle assay, PI single staining, flow cytometry; assay type: cell-based; conditions: A549, 2 μM, 48 h
property_name: Percentage of Cell Cycles (%) S
Numbers only, in %.

# compound, measured_on, Percentage of Cell Cycles (%) S
measured = [
    ("Cc1ccccc1Cn1c2ccccc2c2cc(C(=O)OCCCCCOC(=O)c3cc4c5ccccc5n(Cc5ccccc5C)c4cn3)ncc21 [Compound 6i]", "A549 cells", 32.08),
]

Below is a list of compounds. For each, state its recorded Percentage of Cell Cycles (%) S.
1. COC(=O)c1cc2c3ccccc3n(Cc3ccccc3C)c2cn1 [Compound 4B]
2. COC(=O)c1cc2c3ccccc3n(Cc3ccccc3F)c2cn1 [Compound 4D]
3. O=C(OCCCCCOC(=O)c1cc2c3ccccc3n(Cc3ccccc3F)c2cn1)c1cc2c3ccccc3n(Cc3ccccc3F)c2cn1 [Compound 6u]

1. 25.16
2. 24.17
3. 23.79

---

Kindly supply the reported Percentage of Cell Cycles (%) SubG1 values for the records listed here.
test system: A549 cells; assay: Cell cycle assay, PI single staining, flow cytometry; format: cell-based; details: A549, 8 μM, 48 h
One number for each entry, in %.

Reference set, count: 3
# compound_smiles, unit_label, Percentage of Cell Cycles (%) SubG1
rows = [
    ("O=C(OCCCCCOC(=O)c1cc2c3ccccc3n(Cc3ccccc3F)c2cn1)c1cc2c3ccccc3n(Cc3ccccc3F)c2cn1", "%", 44.92),
    ("Cc1ccccc1Cn1c2ccccc2c2cc(C(=O)OCCCCCOC(=O)c3cc4c5ccccc5n(Cc5ccccc5C)c4cn3)ncc21", "%", 21.32),
    ("COC(=O)c1cc2c3ccccc3n(Cc3ccccc3C)c2cn1", "%", 4.15),
]

--- query ---
Identify measured Percentage of Cell Cycles (%) SubG1 associated with COC(=O)c1cc2c3ccccc3n(Cc3ccccc3F)c2cn1
46.29

---

system: SGC-7901 (gastric carcinoma) cell line; assay: MTT cytotoxicity assay, SGC-7901; assay type: cell-based; conditions: Homo sapiens, 48 h, mean of three independent experiments, read-out: IC50 (μM) Mean ± SD, SGC-7901
Param label: returns true (1) when IC50 < 30 µM, returns false (0) otherwise, including exact equality.

Reference set (5 entries):
# compound, class_assignment
measured = [
    ("O=C(OCCCOC(=O)c1cc2c3ccccc3n(Cc3ccccc3F)c2cn1)c1cc2c3ccccc3n(Cc3ccccc3F)c2cn1 [Compound 6s]", "true (1)"),
    ("O=c1[nH]cc(F)c(=O)[nH]1 [Compound 5-FU, 5-fluorouracil, reference compound]", "false (0)"),
    ("O=C(OCCCCCOC(=O)c1cc2c3ccccc3n(Cc3ccccc3)c2cn1)c1cc2c3ccccc3n(Cc3ccccc3)c2cn1 [Compound 6c]", "true (1)"),
    ("O=C(OCCCCCCCCOC(=O)c1cc2c3ccccc3n(Cc3ccccc3)c2cn1)c1cc2c3ccccc3n(Cc3ccccc3)c2cn1 [Compound 6e]", "false (0)"),
    ("O=C(OCCCCOC(=O)c1cc2c3ccccc3n(Cc3ccccc3F)c2cn1)c1cc2c3ccccc3n(Cc3ccccc3F)c2cn1 [Compound 6t]", "true (1)"),
]

A record lists COC(=O)c1cc2c3ccccc3n(Cc3ccccc3)c2cn1 [Compound 4A] . Is its IC50 below 30 µM?
false (0)

A record lists COC(=O)c1cc2c3ccccc3n(Cc3ccc(C)cc3)c2cn1 [Compound 4C] . Is its IC50 below 30 µM?
false (0)

---

Kindly supply the reported IC50 values for the records listed here.
tested on: SGC-7901 (gastric carcinoma) cell line; assay: MTT cytotoxicity assay, SGC-7901; format: cell-based; conditions: Homo sapiens, 48 h, mean of three independent experiments, read-out: IC50 (μM) Mean ± SD, SGC-7901
Numbers only, in µM.

Reference set, count: 5
# compound_smiles, measured_on, IC50, µM
measured = [
    ("COC(=O)c1cc2c3ccccc3n(Cc3ccccc3F)c2cn1", "SGC-7901 (gastric carcinoma) cell line", 17.8),
    ("Cc1ccccc1Cn1c2ccccc2c2cc(C(=O)OCCCCCCCCOC(=O)c3cc4c5ccccc5n(Cc5ccccc5C)c4cn3)ncc21", "SGC-7901 (gastric carcinoma) cell line", 35),
    ("Cc1ccc(Cn2c3ccccc3c3cc(C(=O)OCCCCOC(=O)c4cc5c6ccccc6n(Cc6ccc(C)cc6)c5cn4)ncc32)cc1", "SGC-7901 (gastric carcinoma) cell line", 37.8),
    ("COC(=O)c1cc2c3ccccc3n(Cc3ccccc3C)c2cn1", "SGC-7901 (gastric carcinoma) cell line", 42.3),
    ("Cc1ccc(Cn2c3ccccc3c3cc(C(=O)OCCCCCCCCOC(=O)c4cc5c6ccccc6n(Cc6ccc(C)cc6)c5cn4)ncc32)cc1", "SGC-7901 (gastric carcinoma) cell line", 35.8),
]

Below is a list of molecules. For each, state its recorded IC50.
1. O=C(OCCCOC(=O)c1cc2c3ccccc3n(Cc3ccccc3)c2cn1)c1cc2c3ccccc3n(Cc3ccccc3)c2cn1
2. O=C(OCCCCCCCCOC(=O)c1cc2c3ccccc3n(Cc3ccccc3F)c2cn1)c1cc2c3ccccc3n(Cc3ccccc3F)c2cn1

17.8
30

---

Test system: SGC-7901 (gastric carcinoma) cell line
Assay: MTT cytotoxicity assay, SGC-7901
Assay type: cell-based
Conditions: Homo sapiens, 48 h, mean of three independent experiments, read-out: IC50 (μM) Mean ± SD, SGC-7901
Experimental: All cell lines (A549, SGC-7901, Hela, SMMC-7721, and MCF-7) were purchased from the American Type Culture Collection (Manassas, VA, USA), and were cultured in Dulbecco’s modified Eagle’s medium (DMEM, HycloneLaboratories Inc., Logan, Utah, USA) supplemented with 10% fetal bovine serum (FBS, Gibco&Invitrogen, Carlsbad, CA, USA) at 37 °C and 5% CO2. The cytotoxic activities of β-carboline-3-carboxylic acid derivatives were investigated by the MTT method, as previously described. […]
property_name: IC50

Reference set, count: 3
# compound, measured_on, property_name, value_reported
data = [
    ("O=C(OCCCCOC(=O)c1cc2c3ccccc3n(Cc3ccccc3)c2cn1)c1cc2c3ccccc3n(Cc3ccccc3)c2cn1 [Compound 6b]", "SGC-7901 (gastric carcinoma) cell line", "IC50", "15.5 µM"),
    ("O=C(OCCCCCOC(=O)c1cc2c3ccccc3n(Cc3ccccc3F)c2cn1)c1cc2c3ccccc3n(Cc3ccccc3F)c2cn1 [Compound 6u]", "SGC-7901 (gastric carcinoma) cell line", "IC50", "5.86 µM"),
    ("Cc1ccc(Cn2c3ccccc3c3cc(C(=O)OCCCCCCOC(=O)c4cc5c6ccccc6n(Cc6ccc(C)cc6)c5cn4)ncc32)cc1 [Compound 6p]", "SGC-7901 (gastric carcinoma) cell line", "IC50", "17.8 µM"),
]

--- query ---
Identify measured IC50 associated with Cc1ccccc1Cn1c2ccccc2c2cc(C(=O)OCCCCCOC(=O)c3cc4c5ccccc5n(Cc5ccccc5C)c4cn3)ncc21 [Compound 6i]
7.18 µM
